assay-summary: folding stability dG unfold from chymotrypsin proteolysis; higher = more stable
Everything with folding stability dG unfold lower than 2 kcal/mol is label 0; everything else, including exactly 2 kcal/mol, is label 1.

Example results:
item-sequence	discrete-label
SAGGMVYRVKVKITFPDGKTYYIPFPNFKSFEEILNVLKKLGFENLENIPIEVIEIEPIPEVPEELLKSAGG [r13_493_TrMRF]	label 1
SAGGAKVTEVKVENGYVTVTVDGKLVAKAPPPPPPPKVRVRNADGEEEERSLEDLLAENPENLEIELESAGG [r13_802_TrROS_Hall]	label 0
MEITITETENGYRVEVKIEITVIDPKTGEPVPLEIPVEAFVPASDPDPEKAAKEAAEKALEEVLKALPEGLS [r1_414_JUSTAS]	label 0

stdin: Tell me whether folding stability dG unfold is at least 2 kcal/mol here: SAGGSAGGSAGMETIRLTFTVPGPDDRYYRVSVEARINPPTGEIEILRVEITPLDNPDAISAGGSAGGSAGG [r11_777_TrMRF]
stdout: label 1

stdin: Quick check: does SAGGEMTAEERARRLAERLAEELERRTGRKVEVVSVEVEYDPETDEVTVRIEIRLEDGSTLTIELRLSAGGS [r8_372_TrROS_Hall] have folding stability dG unfold greater than or equal to 2 kcal/mol?
stdout: label 1

stdin: For this sequence, is measured folding stability dG unfold 2 kcal/mol or higher? SAGGSASLEEVIESVTKPLGAKGEIDPETGVTYVQDPSGENLTLETEDGRPLKVTYEPEGKWTAVESAGGSA [r15_256_JUSTAS]
stdout: label 0

stdin: Form field: folding stability dG unfold at least 2 kcal/mol? Entry: SSPMTVEELLERHPNLLVVRLPDGTVYLFDPEKETLYTVTPGTGEVTVTPLSLEELLALLPAAGHEVLPLSA [r9_721_JUSTAS]
stdout: label 1

stdin: Would you say SAGGSAGGSMSTTETTVTEVTITVRSDGKVSREVKVTVTTTTTITPAGGTATVTTTTTRTPLESAGGSAGGS [r12_409_JUSTAS] shows folding stability dG unfold at minimum 2 kcal/mol?
stdout: label 0

stdin: Could you verify whether the entry SAGGSVEVTKTESKGPGGTVTVEALKTVTKFDEKGNPVKEEEVRITRTETYDPNTGKVTTTTTVEGSAGGSA [r2_220_JUSTAS] shows folding stability dG unfold of no less than 2 kcal/mol?
stdout: label 0

stdin: Is folding stability dG unfold for SAKEEYYKVRIYFPETNEVVEIEAKSEEEALEALKKLLNEPNIVKIEIEKVEVEEEPEEKEYSEEELKSSAG [r14_747_TrROS_Hall] at or above 2 kcal/mol?
stdout: label 1

stdin: Threshold query (folding stability dG unfold >= 2 kcal/mol) on SAGGSAMNPKLEALPEVEITEEKTEEYKTAENKKLLVKEYKSNAEPGKTYKVIYDPETGKVLSVEESAGGSA [r15_66_JUSTAS]
stdout: label 0

stdin: Check if folding stability dG unfold >= 2 kcal/mol (inclusive). Item: SAERTPVREADIPIPGLPVVVRVRTYAEAVELARKSGVPVVVETVEVEVFLPDGSRVRFPAPGLLVLDGSAG [r14_100_TrMRF]
stdout: label 0

stdin: Does the sequence SAGGSAMIEIKVEVNGKTYRITIEKNEDGTLTLTVYDEKTGKKTEIEIPLENLEELKKLNVKRIEISAGGSA [r15_629_TrROS_Hall] have recorded folding stability dG unfold that is 2 kcal/mol or more?
stdout: label 1

Data provenance: the supplement of paper PMC12764529
